Please consider the recorded Kd for FK-506 binding protein (Homo sapiens) in what follows.
Dear colleague, please return just the value in nM, with no unit written.

# annotated cases, reported Kd shown
COc1cc(C(=O)C(=O)N2CCCC[C@H]2C(=O)OC(CCCc2ccccc2)c2ccccc2)cc(OC)c1OC (stereo partly shown); 40
COc1cc(C(=O)C(=O)N2CCCC[C@H]2C(=O)OC(CCCc2ccccc2)CCCc2ccc(CO)cc2)cc(OC)c1OC (stereo partly shown); 19
COc1cc(C(=O)C(=O)N2CCCC[C@H]2C(=O)OC(CCCc2ccccc2)c2cccc(CO)c2)cc(OC)c1OC (stereo partly shown); 140

Consider the record given below.
State the measured Kd (FK-506 binding protein (Homo sapiens)) of COc1ccc(CCCC(CCCc2ccccc2)OC(=O)[C@@H]2CCCCN2C(=O)C(=O)c2cc(OC)c(OC)c(OC)c2)cc1 (stereo partly shown)
68
